Value source: the RNAGym collection of RNA variant scans (doi:10.7554/elife.90254)

B1: LINE1-full (parent)
chain: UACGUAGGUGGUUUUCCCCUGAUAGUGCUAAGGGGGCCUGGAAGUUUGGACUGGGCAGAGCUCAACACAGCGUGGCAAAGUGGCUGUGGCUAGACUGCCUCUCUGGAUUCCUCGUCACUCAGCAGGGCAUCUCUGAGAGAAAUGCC

Variants of: B1
method: self-cleavage, relative activity (ratio to wild type); higher = more cleavage; in vitro, sequencing; the parent is a self-cleaving ribozyme
Kind request: treat 0.7 as inclusive, so self-cleavage at 0.7 or higher is y, anything lower is n.

Test whether the variant A77U U85A records self-cleavage of 0.7 or higher.
n

Given U13C G72A , state whether its self-cleavage is at least 0.7.
y

In plain terms: is recorded self-cleavage at least 0.7 for G35A U45C ?
y

Is reported self-cleavage greater than or equal to 0.7 here: U62C U102C
n

Given A42G U85G , state whether its self-cleavage is at least 0.7.
n

Please check the record U29A U91C and state if its self-cleavage is at or above 0.7.
n

Decide: is the reported value of self-cleavage for A79G C95U equal to or greater than 0.7?
n

Check the entry G21U A42U : does self-cleavage equal or exceed 0.7?
y

Does the variant A24G G25U have recorded self-cleavage that is 0.7 or more?
y

Answer whether self-cleavage of U20G A78G is greater than or equal to 0.7.
y

Given U15C A59G , state whether its self-cleavage is at least 0.7.
n

State whether the measured self-cleavage reaches 0.7, counting equality as reaching it, for U1C U29G
y

API: above_or_equal(metric=self-cleavage, cutoff=0.7) for item G97A U100C
n

Check this variant for self-cleavage at or above 0.7: A42G C99A
y

Hello, I need to know if G35U U112C has measured self-cleavage not below 0.7. Thanks!
y

Could you please find out whether U20C U62G has self-cleavage that meets 0.7 or exceeds it?
n

I'd appreciate it if you could say whether A22U G106A has self-cleavage at least equal to 0.7.
y

Please indicate if the recorded self-cleavage for U23C U73A meets or exceeds 0.7.
y

hey, is self-cleavage for this one >= 0.7? A2G U96C
n

Is self-cleavage at least 0.7? Consider A69G U85C
n
